tested-target: Protein farnesyltransferase alpha subunit/subunit beta (Trypanosoma brucei brucei, UniProt Q9NC76+Q9NC77)
Sequence (Q9NC77 whole entry): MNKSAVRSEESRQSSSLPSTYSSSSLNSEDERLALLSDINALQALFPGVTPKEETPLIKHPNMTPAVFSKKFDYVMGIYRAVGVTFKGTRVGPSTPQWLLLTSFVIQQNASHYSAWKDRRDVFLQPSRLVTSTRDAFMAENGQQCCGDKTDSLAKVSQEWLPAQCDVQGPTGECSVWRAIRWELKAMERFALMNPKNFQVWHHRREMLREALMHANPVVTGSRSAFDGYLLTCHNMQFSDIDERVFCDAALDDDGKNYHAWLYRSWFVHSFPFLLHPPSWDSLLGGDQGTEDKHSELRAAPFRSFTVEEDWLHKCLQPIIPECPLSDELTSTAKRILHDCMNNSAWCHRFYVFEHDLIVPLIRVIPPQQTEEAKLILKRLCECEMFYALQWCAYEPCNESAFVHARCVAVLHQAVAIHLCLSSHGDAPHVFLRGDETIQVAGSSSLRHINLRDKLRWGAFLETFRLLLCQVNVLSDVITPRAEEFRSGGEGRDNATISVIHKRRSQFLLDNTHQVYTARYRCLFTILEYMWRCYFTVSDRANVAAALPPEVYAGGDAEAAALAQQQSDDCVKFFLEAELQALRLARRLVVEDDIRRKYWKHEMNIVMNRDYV
Sequence (Q9NC76 whole entry): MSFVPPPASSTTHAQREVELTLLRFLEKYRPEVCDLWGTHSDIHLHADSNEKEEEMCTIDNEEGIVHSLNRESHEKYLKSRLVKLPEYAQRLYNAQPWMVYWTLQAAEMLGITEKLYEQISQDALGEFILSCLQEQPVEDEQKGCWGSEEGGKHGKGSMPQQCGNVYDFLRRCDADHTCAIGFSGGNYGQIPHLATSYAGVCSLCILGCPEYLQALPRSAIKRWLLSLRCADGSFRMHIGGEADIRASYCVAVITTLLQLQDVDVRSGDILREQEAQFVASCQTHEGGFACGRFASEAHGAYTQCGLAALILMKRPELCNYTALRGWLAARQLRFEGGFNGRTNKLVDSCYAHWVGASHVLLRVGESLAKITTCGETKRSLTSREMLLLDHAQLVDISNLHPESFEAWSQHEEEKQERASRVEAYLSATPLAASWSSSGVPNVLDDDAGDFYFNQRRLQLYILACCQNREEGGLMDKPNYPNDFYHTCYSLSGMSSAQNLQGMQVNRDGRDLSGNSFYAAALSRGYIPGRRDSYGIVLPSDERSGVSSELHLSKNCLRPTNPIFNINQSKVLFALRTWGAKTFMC
test-details: T. brucei FTase Assay
measured-endpoint: log10 of IC50 (log10 of the value in µM)
Use the decimal logarithm of IC50 (µM).

Recorded log10 of IC50, per entry:
1) CC(C)Sc1sc(C(=O)O)c(-c2ccc3ccccc3c2)c1C#N | 0.99
2) CC(C)Sc1sc(C(=O)O)c(-c2ccc(Cl)cc2)c1C#N | 1.03
3) CC(C)Sc1sc(C(=O)O)c(-c2cccc(F)c2)c1C#N | 1.51
4) Cc1cccc(-c2c(C(=O)O)sc(SC(C)C)c2C#N)c1 | 1.53
5) COc1ccc(-c2c(C(=O)O)sc(SC(C)C)c2C#N)cc1 | 0.93

If you can, please state the reported log10 of IC50 value of `CC(C)Sc1sc(C(=O)O)c(-c2ccc(F)cc2)c1C#N` .
1.46

Now the same for `CC(C)Sc1sc(C(=O)O)c(-c2cccc(Cl)c2)c1C#N`
1.16

Now the same for `COC(=O)c1ccc(-c2c(C(=O)O)sc(SC(C)C)c2C#N)cc1`
1.15

Now the same for `CC(C)Sc1sc(C(=O)O)c(-c2cccc3oc4ccccc4c23)c1C#N`
0.52

Now the same for `CC(C)Sc1sc(C(=O)O)c(-c2cccc3ccccc23)c1C#N`
1.02

Data origin, for the record: BindingDB's records for doi:10.3109/14756366.2011.643302
